Numbers sourced from ChEMBL document CHEMBL1926518.

System: Staphylococcus aureus
Assay: Antibacterial activity against constitutive macrolide, licosamide and streptogramin-resistant Staphylococcus aureus PK2 by broth microdilution technique
Assay type: functional
MEASURED_QUANTITY: MIC

Worked set:
CCOC(=O)c1cn(C2CC2)c2ccc(C#CCN3CCN(C(=O)OC(C)(C)C)CC3)cc2c1=O : > 64 µg/mL
CC[C@H]1OC(=O)[C@H](C)[C@@H](O[C@H]2C[C@@](C)(OC)[C@@H](OCCCN3CCN(C/C=C/c4ccc5c(c4)c(=O)c(C(=O)O)cn5CC)CC3)[C@H](C)O2)[C@H](C)[C@@H](O[C@@H]2O[C@H](C)C[C@H](N(C)C)[C@H]2O)[C@](C)(O)C[C@@H](C)CN(C)[C@H](C)[C@@H](O)[C@]1(C)O : > 64 µg/mL

Attention now turns to another entry.
[Q] Name the recorded MIC for CCOC(=O)c1cn(CC)c2ccc(/C=C/CN3CCN(C(=O)OC(C)(C)C)CC3)cc2c1=O .
[A] > 64 µg/mL

###

Tested on: Streptococcus pneumoniae
Assay: Antibacterial activity against efflux-mediated macrolide-resistant Streptococcus pneumoniae Ci137 by broth microdilution technique
Assay type: functional
MEASURED_QUANTITY: MIC

Worked set:
CCOC(=O)c1cn(CC)c2ccc(C#CCN3CCNCC3)cc2c1=O : > 64 µg/mL
CCOC(=O)c1cn(CC)c2ccc(C#CCN3CCN(C(=O)OC(C)(C)C)CC3)cc2c1=O : > 64 µg/mL
CC[C@H]1OC(=O)[C@H](C)[C@@H](O[C@H]2C[C@@](C)(OC)[C@@H](OC(=O)CCN3CCN(CC#Cc4ccc5c(c4)c(=O)c(C(=O)O)cn5CC)CC3)[C@H](C)O2)[C@H](C)[C@@H](O[C@@H]2O[C@H](C)C[C@H](N(C)C)[C@H]2O)[C@](C)(O)C[C@@H](C)CN(C)[C@H](C)[C@@H](OC)[C@]1(C)O : ≤ 0.125 µg/mL
CCOC(=O)c1cn(C2CC2)c2ccc(C#CCN3CCN(CCC(=O)O[C@H]4[C@H](C)O[C@@H](O[C@H]5[C@H](C)[C@@H](O[C@@H]6O[C@H](C)C[C@H](N(C)C)[C@H]6O)[C@](C)(OC)C[C@@H](C)C(=O)[C@H](C)[C@@H](O)[C@](C)(O)[C@@H](CC)OC(=O)[C@@H]5C)C[C@@]4(C)OC)CC3)cc2c1=O : ≤ 0.125 µg/mL

[Q] Name the recorded MIC for CC[C@H]1OC(=O)[C@H](C)[C@@H](O[C@H]2C[C@@](C)(OC)[C@@H](OC(=O)CCN3CCN(CCCc4ccc5c(c4)c(=O)c(C(=O)O)cn5CC)CC3)[C@H](C)O2)[C@H](C)[C@@H](O[C@@H]2O[C@H](C)C[C@H](N(C)C)[C@H]2O)[C@](C)(O)C[C@@H](C)CN(C)[C@H](C)[C@@H](OC)[C@]1(C)O .
[A] ≤ 0.125 µg/mL

[Q] Thanks! And CC[C@H]1OC(=O)[C@H](C)[C@@H](O[C@H]2C[C@@](C)(OC)[C@@H](O)[C@H](C)O2)[C@H](C)[C@@H](O[C@@H]2O[C@H](C)C[C@H](N(C)C)[C@H]2O)[C@](C)(OC)C[C@@H](C)C(=O)[C@H](C)[C@@H](O)[C@]1(C)O ?
[A] 4 µg/mL

[Q] Thanks! And CC[C@H]1OC(=O)[C@H](C)[C@@H](O[C@H]2C[C@@](C)(OC)[C@@H](O)[C@H](C)O2)[C@H](C)[C@@H](O[C@@H]2O[C@H](C)C[C@H](N(C)C)[C@H]2O)[C@](C)(O)C[C@@H](C)CN(C)[C@H](C)[C@@H](O)[C@]1(C)O ?
[A] 8 µg/mL

[Q] Thanks! And CCOC(=O)c1cn(C2CC2)c2ccc(CCCN3CCN(CCC(=O)O[C@H]4[C@H](C)O[C@@H](O[C@H]5[C@H](C)[C@@H](O[C@@H]6O[C@H](C)C[C@H](N(C)C)[C@H]6O)[C@](C)(OC)C[C@@H](C)C(=O)[C@H](C)[C@@H](O)[C@](C)(O)[C@@H](CC)OC(=O)[C@@H]5C)C[C@@]4(C)OC)CC3)cc2c1=O ?
[A] ≤ 0.125 µg/mL

###

System: Streptococcus pyogenes
Assay: Antibacterial activity against constitutive macrolide, licosamide and streptogramin-resistant Streptococcus pyogenes 166 GR-Micro by broth microdilution technique
Assay type: functional
Documented MIC across a set of compounds
Dear colleague, please return just the value in µg/mL, with no unit written.

CCOC(=O)c1cn(CC)c2ccc(CCCN3CCN(CCC(=O)O[C@H]4[C@H](C)O[C@@H](O[C@H]5[C@H](C)[C@@H](O[C@@H]6O[C@H](C)C[C@H](N(C)C)[C@H]6O)[C@](C)(O)C[C@@H](C)CN(C)[C@H](C)[C@@H](O)[C@](C)(O)[C@@H](CC)OC(=O)[C@@H]5C)C[C@@]4(C)OC)CC3)cc2c1=O : 32
CC[C@H]1OC(=O)[C@H](C)[C@@H](O[C@H]2C[C@@](C)(OC)[C@@H](OC(=O)CCN3CCN(CCCc4ccc5c(c4)c(=O)c(C(=O)O)cn5CC)CC3)[C@H](C)O2)[C@H](C)[C@@H](O[C@@H]2O[C@H](C)C[C@H](N(C)C)[C@H]2O)[C@](C)(O)C[C@@H](C)CN(C)[C@H](C)[C@@H](OC)[C@]1(C)O : 32

[Q] Name the recorded MIC for CC[C@H]1OC(=O)[C@H](C)[C@@H](O[C@H]2C[C@@](C)(OC)[C@@H](OCCCN3CCN(C/C=C/c4ccc5c(c4)c(=O)c(C(=O)O)cn5CC)CC3)[C@H](C)O2)[C@H](C)[C@@H](O[C@@H]2O[C@H](C)C[C@H](N(C)C)[C@H]2O)[C@](C)(O)C[C@@H](C)CN(C)[C@H](C)[C@@H](O)[C@]1(C)O .
[A] 64

###

Tested on: Moraxella catarrhalis
Assay: Antibacterial activity against Moraxella catarrhalis ATCC 23246 by broth microdilution technique
Format: functional
MEASURED_QUANTITY: MIC

CC[C@H]1OC(=O)[C@H](C)[C@@H](O[C@H]2C[C@@](C)(OC)[C@@H](O)[C@H](C)O2)[C@H](C)[C@@H](O[C@@H]2O[C@H](C)C[C@H](N(C)C)[C@H]2O)[C@](C)(O)C[C@@H](C)CN(C)[C@H](C)[C@@H](O)[C@]1(C)O [AZITHROMYCIN] : ≤ 0.125 µg/mL

[Q] Name the recorded MIC for CCOC(=O)c1cn(CC)c2ccc(C#CCN3CCN(C(=O)OC(C)(C)C)CC3)cc2c1=O .
[A] > 64 µg/mL

[Q] Thanks! And CCOC(=O)c1cn(C2CC2)c2ccc(C#CCN3CCNCC3)cc2c1=O ?
[A] > 64 µg/mL

[Q] Thanks! And CCOC(=O)c1cn(CC)c2ccc(/C=C/CN3CCN(C(=O)OC(C)(C)C)CC3)cc2c1=O ?
[A] > 64 µg/mL

[Q] Thanks! And CCOC(=O)c1cn(C2CC2)c2ccc(C#CCN3CCN(C(=O)OC(C)(C)C)CC3)cc2c1=O ?
[A] > 64 µg/mL

###

System: Streptococcus pyogenes
Assay: Antibacterial activity against constitutive macrolide, licosamide and streptogramin-resistant Streptococcus pyogenes 166 GR-Micro by broth microdilution technique
Format: functional
Documented MIC across a set of compounds

CC[C@H]1OC(=O)[C@H](C)[C@@H](O[C@H]2C[C@@](C)(OC)[C@@H](OCCCN3CCN(CCCc4ccc5c(c4)c(=O)c(C(=O)O)cn5CC)CC3)[C@H](C)O2)[C@H](C)[C@@H](O[C@@H]2O[C@H](C)C[C@H](N(C)C)[C@H]2O)[C@](C)(O)C[C@@H](C)CN(C)[C@H](C)[C@@H](O)[C@]1(C)O : > 64 mg/L

[Q] Name the recorded MIC for CCOC(=O)c1cn(CC)c2ccc(C#CCN3CCN(C(=O)OC(C)(C)C)CC3)cc2c1=O .
[A] > 64 mg/L

[Q] Thanks! And CCOC(=O)c1cn(CC)c2ccc(/C=C/CN3CCN(C(=O)OC(C)(C)C)CC3)cc2c1=O ?
[A] > 64 mg/L

###

System: Streptococcus pneumoniae
Test: Antibacterial activity against efflux-mediated macrolide-resistant Streptococcus pneumoniae Ci137 by broth microdilution technique
Assay type: functional
MEASURED_QUANTITY: MIC

Worked set:
CC[C@H]1OC(=O)[C@H](C)[C@@H](O[C@H]2C[C@@](C)(OC)[C@@H](OCCCN3CCN(CCCc4ccc5c(c4)c(=O)c(C(=O)O)cn5CC)CC3)[C@H](C)O2)[C@H](C)[C@@H](O[C@@H]2O[C@H](C)C[C@H](N(C)C)[C@H]2O)[C@](C)(O)C[C@@H](C)CN(C)[C@H](C)[C@@H](O)[C@]1(C)O : 0.25 µg/mL
CC[C@H]1OC(=O)[C@H](C)[C@@H](O[C@H]2C[C@@](C)(OC)[C@@H](OCCCN3CCN(C/C=C/c4ccc5c(c4)c(=O)c(C(=O)O)cn5CC)CC3)[C@H](C)O2)[C@H](C)[C@@H](O[C@@H]2O[C@H](C)C[C@H](N(C)C)[C@H]2O)[C@](C)(O)C[C@@H](C)CN(C)[C@H](C)[C@@H](O)[C@]1(C)O : 8 µg/mL
CCOC(=O)c1cn(C2CC2)c2ccc(C#CCN3CCN(C(=O)OC(C)(C)C)CC3)cc2c1=O : > 64 µg/mL
CCOC(=O)c1cn(CC)c2ccc(CCCN3CCN(CCC(=O)O[C@H]4[C@H](C)O[C@@H](O[C@H]5[C@H](C)[C@@H](O[C@@H]6O[C@H](C)C[C@H](N(C)C)[C@H]6O)[C@](C)(OC)C[C@@H](C)C(=O)[C@H](C)[C@@H](O)[C@](C)(O)[C@@H](CC)OC(=O)[C@@H]5C)C[C@@]4(C)OC)CC3)cc2c1=O : ≤ 0.125 µg/mL
CCOC(=O)c1cn(CC)c2ccc(C#CCN3CCN(CCC(=O)O[C@H]4[C@H](C)O[C@@H](O[C@H]5[C@H](C)[C@@H](O[C@@H]6O[C@H](C)C[C@H](N(C)C)[C@H]6O)[C@](C)(OC)C[C@@H](C)C(=O)[C@H](C)[C@@H](O)[C@](C)(O)[C@@H](CC)OC(=O)[C@@H]5C)C[C@@]4(C)OC)CC3)cc2c1=O : ≤ 0.125 µg/mL

Attention now turns to another entry.
[Q] Name the recorded MIC for CCOC(=O)c1cn(CC)c2ccc(C#CCN3CCN(CCC(=O)O[C@H]4[C@H](C)O[C@@H](O[C@H]5[C@H](C)[C@@H](O[C@@H]6O[C@H](C)C[C@H](N(C)C)[C@H]6O)[C@](C)(O)C[C@@H](C)CN(C)[C@H](C)[C@@H](OC)[C@](C)(O)[C@@H](CC)OC(=O)[C@@H]5C)C[C@@]4(C)OC)CC3)cc2c1=O .
[A] ≤ 0.125 µg/mL
